tested on: Key Broadleaf Weed and Crop Species; experiment: Post-Emergent Test II: postemergent herbicidal activity, visual rating after 14 d (Table 7); format: in vivo; details: post-emergence, 336 h, CHEAL: lambsquarters (Chenopodium album), 70 g ai/ha, read-out: Visual Growth Reduction (%) 14 Days After Application CHEAL

Smiles record: COC(=O)c1nc(-c2ccc3c(c2F)OC(F)(F)C3(F)F)cc(N)c1Cl
pest or weed control at 70 g/ha: 0 to 29%
//
Smiles record: COC(=O)c1nc(-c2ccc(F)c3c2OCO3)cc(N)c1Cl
pest or weed control at 70 g/ha: 85 to 94%
//
Smiles record: Nc1cc(-c2ccc(F)c3c2OC(F)(F)O3)nc(C(=O)O)c1Cl
pest or weed control at 70 g/ha: 95 to 100%
//
Smiles record: COC(=O)c1nc(-c2cccc3c2OCO3)cc(N)c1Cl
pest or weed control at 70 g/ha: 75 to 84%
//
Smiles record: COC(=O)c1nc(-c2ccc(F)c3c2OCO3)nc(N)c1OC
pest or weed control at 70 g/ha: 85 to 94%
//
Smiles record: COC(=O)c1nc(-c2ccc(F)c3c2OC(F)(F)O3)cc(N)c1Cl
pest or weed control at 70 g/ha: 85 to 94%
//
Smiles record: Nc1c(F)c(-c2ccc(Cl)c3c2OC(F)(F)O3)nc(C(=O)O)c1Cl
pest or weed control at 70 g/ha: 95 to 100%
//
Smiles record: COC(=O)c1nc(-c2ccc(Cl)c3c2OC(F)(F)O3)nc(N)c1OC
pest or weed control at 70 g/ha: 95 to 100%
//
Smiles record: COC(=O)c1nc(-c2ccc(Cl)c3c2OC(F)(F)O3)cc(N)c1Cl
pest or weed control at 70 g/ha: 95 to 100%
//
Smiles record: Nc1c(F)c(-c2ccc3c(c2)OCC3)nc(C(=O)O)c1Cl
pest or weed control at 70 g/ha: 95 to 100%
//
Smiles record: COC(=O)c1nc(-c2cccc3c2OC(F)(F)O3)nc(N)c1OC
pest or weed control at 70 g/ha: 75 to 84%
//
Smiles record: COC(=O)c1nc(-c2ccc(Cl)c3c2OC(F)(F)O3)c(C)c(N)c1Cl
pest or weed control at 70 g/ha: 85 to 94%
//
Smiles record: COC(=O)c1nc(-c2ccc3c(c2)SCO3)c(F)c(N)c1Cl
pest or weed control at 70 g/ha: 30 to 44%
//
Smiles record: COC(=O)c1nc(-c2c(F)ccc3c2OC(F)(F)O3)cc(N)c1Cl
pest or weed control at 70 g/ha: 95 to 100%
//
Smiles record: COC(=O)c1nc(-c2cccc3c2OC(F)(F)O3)cc(N)c1Cl
pest or weed control at 70 g/ha: 85 to 94%

###

Measured pest or weed control at 140 g/ha values are reported for all entries that follow.
system: Key Grass and Sedge Weeds as well as Grass Crops; assay: Post-Emergent Test II: postemergent herbicidal activity, visual rating after 14 d (Table 8); type: in vivo; details: post-emergence, 336 h, yellow nutsedge (Cyperus esculentus), 140 g ai/ha, read-out: Visual Growth Reduction (%) 14 Days After Application CYPES
Readout name: pest or weed control at 140 g/ha

Smiles record: COC(=O)c1nc(-c2ccc3c(c2)OC(F)(F)O3)nc(N)c1OC
Reported: 95 to 100%

Smiles record: COC(=O)c1nc(-c2ccc3c(c2F)OC(F)(F)O3)c(F)c(N)c1Cl
Reported: 95 to 100%

Smiles record: Nc1cc(-c2cc3c(cc2F)OC(F)(F)O3)nc(C(=O)O)c1Cl
Reported: 95 to 100%

Smiles record: COC(=O)c1nc(-c2cc3c(cc2F)OCO3)cc(N)c1Cl
Reported: 60 to 74%

Smiles record: Nc1cc(-c2ccc3c(c2F)OC(F)(F)O3)nc(C(=O)O)c1Cl
Reported: 0 to 29%

Smiles record: Nc1c(F)c(-c2ccc(F)c3c2OC(F)(F)O3)nc(C(=O)O)c1Cl
Reported: 0 to 29%

Smiles record: Nc1c(F)c(-c2cc(F)c3c(c2)OC(F)(F)O3)nc(C(=O)O)c1Cl
Reported: 0 to 29%

Smiles record: COC(=O)c1nc(-c2ccc3c(c2)OC(F)(F)O3)c(F)c(N)c1Cl
Reported: 95 to 100%

Smiles record: COC(=O)c1nc(-c2ccc3c(c2C)OC(F)(F)O3)cc(N)c1Cl
Reported: 95 to 100%

Smiles record: Nc1c(F)c(-c2ccc(I)c3c2OC(F)(F)O3)nc(C(=O)O)c1Cl
Reported: 0 to 29%

Smiles record: Nc1c(F)c(-c2cc3c(cc2F)OC(F)(F)O3)nc(C(=O)O)c1Cl
Reported: 95 to 100%

Smiles record: C=Cc1c(C(=O)OC)nc(-c2cc3c(cc2F)OC(F)(F)O3)c(F)c1N
Reported: 0 to 29%

Smiles record: COC(=O)c1nc(-c2ccc(Cl)c3c2OC(F)(F)O3)c(Cl)c(N)c1Cl
Reported: 0 to 29%

Smiles record: COc1c(N)nc(-c2ccc3c(c2)OC(F)(F)O3)nc1C(=O)O
Reported: 95 to 100%

Smiles record: COC(=O)c1nc(-c2cccc3c2OC(F)(F)O3)c(F)c(N)c1Cl
Reported: 45 to 59%

Smiles record: COC(=O)c1nc(-c2c(F)cc3c(c2F)OCO3)cc(N)c1Cl
Reported: 30 to 44%

Smiles record: COC(=O)c1nc(-c2cc3c(cc2F)OC(F)(F)O3)c(F)c(N)c1Cl
Reported: 95 to 100%

Smiles record: Nc1c(F)c(-c2cccc3c2OCO3)nc(C(=O)O)c1Cl
Reported: 0 to 29%

Smiles record: COC(=O)c1nc(-c2cc3c(cc2F)OC(F)(F)O3)cc(N)c1Cl
Reported: 95 to 100%

Smiles record: Nc1c(F)c(-c2ccc3c(c2F)OC(F)(F)O3)nc(C(=O)O)c1Cl
Reported: 95 to 100%

Smiles record: COC(=O)c1nc(-c2cc3c(cc2F)OC(F)(F)O3)nc(N)c1OC
Reported: 85 to 94%

Smiles record: COC(=O)c1nc(-c2cc3c(cc2F)OC(F)(F)O3)nc(N)c1Cl
Reported: 45 to 59%

Smiles record: COC(=O)c1nc(-c2ccc3c(c2)OC(F)(F)O3)c(Cl)c(N)c1Cl
Reported: 0 to 29%

Smiles record: COc1cc(-c2nc(C(=O)O)c(Cl)c(N)c2F)cc2c1OCO2
Reported: 0 to 29%

Smiles record: C=Cc1c(C(=O)OC)nc(-c2cc3c(cc2F)OCO3)c(F)c1N
Reported: 0 to 29%

Smiles record: COC(=O)c1nc(-c2cc3c(cc2Cl)OC(F)(F)O3)cc(N)c1Cl
Reported: 0 to 29%

Smiles record: COC(=O)c1nc(-c2ccc3c(c2Cl)OC(F)(F)O3)cc(N)c1Cl
Reported: 95 to 100%

Smiles record: COc1c(C(=O)O)nc(-c2ccc3c(c2)OC(F)(F)O3)c(F)c1N
Reported: 95 to 100%

Smiles record: COC(=O)c1nc(-c2cccc3c2OCO3)c(F)c(N)c1Cl
Reported: 30 to 44%

Smiles record: COc1c(N)nc(-c2ccc3c(c2F)OC(F)(F)O3)nc1C(=O)O
Reported: 95 to 100%

Smiles record: COC(=O)c1nc(-c2ccc3c(c2F)OC(F)(F)O3)c(Cl)c(N)c1Cl
Reported: 0 to 29%

Smiles record: COC(=O)c1nc(-c2ccc(Cl)c3c2OC(F)(F)O3)c(F)c(N)c1Cl
Reported: 45 to 59%

Smiles record: COC(=O)c1nc(-c2ccc(F)c3c2OC(F)(F)O3)c(F)c(N)c1Cl
Reported: 30 to 44%

Smiles record: Cc1c(-c2cc(N)c(Cl)c(C(=O)O)n2)ccc2c1OC(F)(F)O2
Reported: 0 to 29%

Smiles record: COC(=O)c1nc(-c2cc3c(cc2Cl)OC(F)(F)O3)c(F)c(N)c1Cl
Reported: 0 to 29%

Smiles record: COC(=O)c1nc(-c2ccc3c(c2OC)OC(F)(F)O3)cc(N)c1Cl
Reported: 0 to 29%

###

test system: Key Grass and Sedge Weeds as well as Grass Crops; experiment: Post-Emergent Test II: postemergent herbicidal activity, visual rating after 14 d (Table 8); assay type: in vivo; details: post-emergence, 336 h, maize, corn (Zea mays), 35 g ai/ha, read-out: Visual Growth Reduction (%) 14 Days After Application ZEAMX

Smiles record: COC(=O)c1nc(-c2cc3c(cc2F)OC(F)(F)O3)c(F)c(N)c1OC
pest or weed control at 35 g/ha: 0 to 29%
--
Smiles record: COC(=O)c1nc(-c2ccc3c(c2)OC(F)(F)O3)c(F)c(N)c1OC
pest or weed control at 35 g/ha: 60 to 74%
--
Smiles record: CC1(C)Oc2ccc(-c3nc(C(=O)O)c(Cl)c(N)c3F)cc2O1
pest or weed control at 35 g/ha: 60 to 74%
--
Smiles record: COC(=O)c1nc(-c2cc3c(cc2F)OC(F)(F)O3)nc(N)c1OC
pest or weed control at 35 g/ha: 30 to 44%
--
Smiles record: Nc1c(F)c(-c2ccc(I)c3c2OC(F)(F)O3)nc(C(=O)O)c1Cl
pest or weed control at 35 g/ha: 0 to 29%
--
Smiles record: Nc1cc(-c2ccc3c(c2Cl)OC(F)(F)O3)nc(C(=O)O)c1Cl
pest or weed control at 35 g/ha: 60 to 74%
--
Smiles record: COC(=O)c1nc(-c2cc3c(cc2F)OCO3)c(F)c(N)c1Cl
pest or weed control at 35 g/ha: 30 to 44%
--
Smiles record: COC(=O)c1nc(-c2cc3c(cc2F)OCO3)c(F)c(N)c1OC
pest or weed control at 35 g/ha: 45 to 59%
--
Smiles record: Nc1c(Cl)c(C(=O)O)nc(-c2ccc3c(c2F)OC(F)(F)O3)c1Cl
pest or weed control at 35 g/ha: 0 to 29%

Hey, just so you know, these numbers are from patent US9149038B2.
